CONDITION_PARAMETERS: bacteroides stercoris, 12 h, 2 µM
Description: The drug is tested on Bacteroides stercoris strain: ATCC43183 for biotransformation. The drug concentrations were measured before and after a 12-h incubation by liquid-chromatography-coupled mass spectrometry (LC–MS)

COMPOUND: CN1CCC(OC(c2ccccc2)c2ccccc2)CC1
Bacterial Biotransformation: Compound NOT metabolized
//
COMPOUND: CCN1CCCC1CNC(=O)c1cc(S(=O)(=O)CC)c(N)cc1OC (stereo not given) [AMISULPRIDE]
Bacterial Biotransformation: Compound NOT metabolized
//
COMPOUND: CN/C(=N/CCSCc1nc[nH]c1C)NC#N
Bacterial Biotransformation: Compound NOT metabolized
//
COMPOUND: CC[C@@]1(O)C(=O)OCc2c1cc1n(c2=O)Cc2cc3c(CN(C)C)c(O)ccc3nc2-1
Bacterial Biotransformation: Compound NOT metabolized

====

RUN_DESCRIPTION: The drug is tested on Bacteroides fragilis strain: ATCC43859 for biotransformation. The drug concentrations were measured before and after a 12-h incubation by liquid-chromatography-coupled mass spectrometry (LC–MS)
CONDITION_PARAMETERS: 2 µM
QUANTITY: Bacterial Biotransformation

COMPOUND: CC(=O)O[C@]1(C(C)=O)CC[C@H]2[C@@H]3C=C(C)C4=CC(=O)CC[C@]4(C)[C@H]3CC[C@@]21C [MEGESTROL ACETATE]
Bacterial Biotransformation: Compound metabolized
//
COMPOUND: CCOc1ccc2nc(S(N)(=O)=O)sc2c1 [ETHOXZOLAMIDE]
Bacterial Biotransformation: Compound NOT metabolized
//
COMPOUND: CN1CCC(=C2c3ccccc3CC(=O)c3sccc32)CC1.O=C(O)/C=C/C(=O)O [KETOTIFEN FUMARATE]
Bacterial Biotransformation: Compound NOT metabolized
//
COMPOUND: N[C@@H](Cc1ccc(N(CCCl)CCCl)cc1)C(=O)O
Bacterial Biotransformation: Compound metabolized
//
COMPOUND: CCN(CC)C(=O)C1(c2ccccc2)CC1CN (stereo not drawn)
Bacterial Biotransformation: Compound NOT metabolized

For the 7 compounds below, give their Bacterial Biotransformation values.
1. CCN(CC)CCOC(=O)C1(C2CCCCC2)CCCCC1
2. O=P(O)(O)O.c1ccc(CN(CC2=NCCN2)c2ccccc2)cc1 [ANTAZOLINE PHOSPHATE]
3. COc1ccc2c3c1O[C@H]1C[C@@H](O)C=C[C@@]31CCN(C)C2
4. COC1=CC(=O)C[C@@H](C)[C@]12Oc1c(Cl)c(OC)cc(OC)c1C2=O
5. O=C(NCc1ccccc1)OCCO [BURAMATE]
6. CCOC(=O)[C@H](CCc1ccccc1)N[C@@H](C)C(=O)N1[C@H](C(=O)O)C[C@H]2CCCC[C@@H]21
7. CSc1ccc2c(c1)C(N1CCN(C)CC1)Cc1ccccc1S2.O=C(O)/C=C\C(=O)O (stereo not drawn)

Output line:
1: Compound NOT metabolized; 2: Compound NOT metabolized; 3: Compound metabolized; 4: Compound metabolized; 5: Compound NOT metabolized; 6: Compound metabolized; 7: Compound NOT metabolized

Provide the reported Bacterial Biotransformation of each entry below, same order.
1. O=C1CC2(CCCC2)CC(=O)N1CCCCN1CCN(c2ncccn2)CC1
2. O=C([O-])C[C@H](O)C[C@H](O)/C=C/c1c(C2CC2)nc2ccccc2c1-c1ccc(F)cc1.O=C([O-])C[C@H](O)C[C@H](O)/C=C/c1c(C2CC2)nc2ccccc2c1-c1ccc(F)cc1.[Ca+2]
3. CC(=O)OCC(=O)NCCCOc1cccc(CN2CCCCC2)c1 [ROXATIDINE ACETATE]
4. CC1OC(OC2C(O)CC(OC3C(O)CC(OC4CCC5(C)C(CCC6C5CCC5(C)C(C7=CC(=O)OC7)CCC65O)C4)OC3C)OC2C)CC(O)C1O (stereo not drawn)
5. CC(CN1c2ccccc2Sc2ccccc21)N(C)C (stereo not drawn)
6. CCc1oc2ccccc2c1C(=O)c1cc(Br)c(O)c(Br)c1
7. CCN(C)C(=O)Oc1cccc([C@H](C)N(C)C)c1.O=C(O)C(O)C(O)C(=O)O [RIVASTIGMINE TARTRATE]

Output line:
["Compound NOT metabolized", "Compound NOT metabolized", "Compound metabolized", "Compound metabolized", "Compound NOT metabolized", "Compound NOT metabolized", "Compound NOT metabolized"]

Count: 7. Required value per item: Bacterial Biotransformation.
1. C#C[C@]1(OC(C)=O)CC[C@H]2[C@@H]3CCC4=C/C(=N/O)CC[C@@H]4[C@H]3CC[C@@]21CC [NORGESTIMATE]
2. CN[C@H]1CC[C@@H](c2ccc(Cl)c(Cl)c2)c2ccccc21
3. CCCc1nc(C(C)(C)O)c(C(=O)OCc2oc(=O)oc2C)n1Cc1ccc(-c2ccccc2-c2nnn[nH]2)cc1
4. OCCOCCN1CCN(C2=Nc3ccccc3Sc3ccccc32)CC1
5. CNC(=C[N+](=O)[O-])NCCSCc1ccc(CN(C)C)o1
6. CO[C@]12C[C@@H](COC(=O)c3cncc(Br)c3)CN(C)[C@@H]1Cc1cn(C)c3cccc2c13
7. COc1ccc(CCN(C)CCCC(C#N)(c2ccc(OC)c(OC)c2)C(C)C)cc1OC (stereo not drawn)

Output line:
["Compound NOT metabolized", "Compound NOT metabolized", "Compound metabolized", "Compound NOT metabolized", "Compound NOT metabolized", "Compound NOT metabolized", "Compound NOT metabolized"]
